Target: Thyroid hormone receptor beta (Homo sapiens) (UniProt P10828)
Sequence (P10828 whole entry, looked up): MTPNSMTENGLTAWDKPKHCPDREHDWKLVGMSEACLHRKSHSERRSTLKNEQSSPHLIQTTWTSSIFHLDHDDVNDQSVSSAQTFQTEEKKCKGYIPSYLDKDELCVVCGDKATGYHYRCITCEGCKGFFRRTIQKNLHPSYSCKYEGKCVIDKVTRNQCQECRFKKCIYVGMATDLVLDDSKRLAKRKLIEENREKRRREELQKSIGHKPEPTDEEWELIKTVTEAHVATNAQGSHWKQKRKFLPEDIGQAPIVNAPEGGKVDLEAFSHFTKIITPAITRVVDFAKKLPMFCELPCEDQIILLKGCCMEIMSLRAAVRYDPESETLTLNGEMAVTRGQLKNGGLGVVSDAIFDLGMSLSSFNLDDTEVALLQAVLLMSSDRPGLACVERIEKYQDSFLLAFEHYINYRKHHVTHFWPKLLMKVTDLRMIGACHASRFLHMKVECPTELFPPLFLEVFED
Test: qHTS assay for small molecule antagonists of thyroid hormone receptor beta signaling (AID 588547);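 note: cells stimulated with 0.4 nM T3 agonist during compound exposure; series mostly up to about 77 µM; % is set by controls: 0 for no effect and ±100 for the full control effect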
Details: TR-UAS-bla HEK293, beta-lactamase ratio, antagonist mode, 18 h
Results filed as inconclusive are left out.
endpoint: activity change % (negative = inhibition) (%)
Please reply with the bare figure in % and do not write the unit itself.

Reported activity change % (negative = inhibition) ( "CC(C)(C)c1n[nH]c(=O)n(N)c1=O" ) = 0.427

Reported activity change % (negative = inhibition) ( "C[Si](Cl)(Cl)[Si](C)(Cl)Cl" ) = 3.73

Reported activity change % (negative = inhibition) ( "CS(C)=O" ) = -25.7

Reported activity change % (negative = inhibition) ( "CCO[Si](CCC#N)(OCC)OCC" ) = 18.5

Reported activity change % (negative = inhibition) ( "Cc1ccc(Cl)cc1Cl" ) = -1.13

Reported activity change % (negative = inhibition) ( "c1ccc2c(c1)ccc1c3ccccc3ccc21" ) = 1.89

Reported activity change % (negative = inhibition) ( "O=C(O)CN(CCO)CCN(CC(=O)O)CC(=O)O" ) = -8.14

Reported activity change % (negative = inhibition) ( "Nc1cc(Cl)nc(C(=O)O)c1Cl" ) = 12

Reported activity change % (negative = inhibition) ( "Oc1ccc(C(c2ccc(O)cc2)C(Cl)(Cl)Cl)cc1" ) = -14.4

Reported activity change % (negative = inhibition) ( "Clc1nc(Cl)c(Cl)c(Cl)c1Cl" ) = -13.1

Reported activity change % (negative = inhibition) ( "O=C1CCCC/C=C/CCCCCCCCCO1" ) = -13.1

Reported activity change % (negative = inhibition) ( "NN(c1ccccc1)c1ccccc1" ) = 4.53

Reported activity change % (negative = inhibition) ( "CCCCCCCCCCCC[N+](C)(C)[O-]" ) = -1.65

Reported activity change % (negative = inhibition) ( "CCCCCCCCCc1ccccc1" ) = 0.977

Reported activity change % (negative = inhibition) ( "CCCCOCCOCCO" ) = 15.3

Reported activity change % (negative = inhibition) ( "CC1(C)[C@@H]([C@@H](Br)C(Br)(Br)Br)[C@H]1C(=O)O[C@H](C#N)c1cccc(Oc2ccccc2)c1" ) = -17.9

Reported activity change % (negative = inhibition) ( "S=C([S-])NCCNC(=S)[S-].[Mn+2]" ) = -12.7

Reported activity change % (negative = inhibition) ( "CCOCCOCCOCC" ) = -11.8

Reported activity change % (negative = inhibition) ( "COC(=O)c1cccc(C)c1S(=O)(=O)NC(=O)Nc1nc(OCC(F)(F)F)nc(N(C)C)n1" ) = 11.3

* * *

Molecular target: Nuclear receptor subfamily 1 group I member 2 (Rattus norvegicus) (UniProt Q9R1A7)
Sequence (Q9R1A7 whole entry, looked up): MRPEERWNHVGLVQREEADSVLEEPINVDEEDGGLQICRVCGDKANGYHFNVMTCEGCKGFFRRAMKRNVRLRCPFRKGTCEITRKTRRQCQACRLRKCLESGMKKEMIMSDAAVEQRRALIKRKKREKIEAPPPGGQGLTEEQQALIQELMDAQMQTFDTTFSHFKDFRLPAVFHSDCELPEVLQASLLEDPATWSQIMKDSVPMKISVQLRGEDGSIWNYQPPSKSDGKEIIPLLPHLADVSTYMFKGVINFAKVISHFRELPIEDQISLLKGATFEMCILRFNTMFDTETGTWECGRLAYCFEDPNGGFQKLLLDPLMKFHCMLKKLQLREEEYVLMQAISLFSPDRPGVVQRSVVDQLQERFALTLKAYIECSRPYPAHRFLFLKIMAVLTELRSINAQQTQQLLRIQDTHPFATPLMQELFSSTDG
Assay: qHTS assay for small molecule activators of the rat pregnane X receptor (rPXR) signaling pathway (AID 651751); note: 0% is about no effect
Conditions: rPXR reporter cells, luciferase (One-Glo), 24 h
endpoint: max response (%)
Please reply with the bare figure in % and do not write the unit itself.

For the molecule "O=C1CCCCCCCCCCC1" , the measured max response on Nuclear receptor subfamily 1 group I member 2 (Rattus norvegicus) (UniProt Q9R1A7) was 0.58

For the molecule "CC1(C)C(=O)N(Cl)C(=O)N1Cl" , the measured max response on Nuclear receptor subfamily 1 group I member 2 (Rattus norvegicus) (UniProt Q9R1A7) was -0.522

For the molecule CCC(C)OC(=O)N1CCCCC1CCO (configuration not stated) , the measured max response on Nuclear receptor subfamily 1 group I member 2 (Rattus norvegicus) (UniProt Q9R1A7) was -1.56

For the molecule "N[C@@H]1[C@@H](O)[C@H](O)[C@@H](CO)O[C@H]1O" , the measured max response on Nuclear receptor subfamily 1 group I member 2 (Rattus norvegicus) (UniProt Q9R1A7) was -3.38

For the molecule "CC(=O)N(CCN(C(C)=O)C(C)=O)C(C)=O" , the measured max response on Nuclear receptor subfamily 1 group I member 2 (Rattus norvegicus) (UniProt Q9R1A7) was -0.996

For the molecule "CC(C)OB(OC(C)C)OC(C)C" , the measured max response on Nuclear receptor subfamily 1 group I member 2 (Rattus norvegicus) (UniProt Q9R1A7) was 0.348

For the molecule "CC(C)c1ccc(C(C)C)cc1" , the measured max response on Nuclear receptor subfamily 1 group I member 2 (Rattus norvegicus) (UniProt Q9R1A7) was -0.628

* * *

Test: qHTS assay for cell viability of HEK293 cells (AID 743288); note: % is set by controls: 0 for no effect and ±100 for the full control effect; nearly all actives have a fitted effect of over 50% in size
Settings: ATP luminescence (CellTiter-Glo), 18 h; hits give low values
Records with an inconclusive call do not appear. Calls of active or inactive are those of the source. Calls follow the shape of the dose curve; as a rule, active = well fitted cell-killing curve with a large enough effect; inconclusive = small, poorly fitted or top-dose-only effect, or effect the other way; inactive = flat fitted curve, though single readings scatter.
endpoint: max response

Reported max response ( "C[C@]12CCC(=O)C=C1CC[C@@H]1[C@@H]2[C@@H](O)C[C@]2(C=O)[C@@H](C(=O)CO)CC[C@@H]12" ) = -8.63% (inactive)

Reported max response ( CC1(C)C(C=C(Cl)Cl)[C@H]1C(=O)OCc1cccc(Oc2ccccc2)c1 (some centres not stated) ) = -12.9% (inactive)

Reported max response ( "CC(C)OB(OC(C)C)OC(C)C" ) = -7.12% (inactive)

Reported max response ( "c1cc(-c2ccncc2)ccn1" ) = -10.3% (inactive)

Reported max response ( "COc1ccc(OC)c(OC)c1" ) = -1.79% (inactive)

Reported max response ( "CCC(=O)OCCc1ccccc1" ) = -5.25% (inactive)

Reported max response ( "CCCCCCCCCCCCCCCCN(C)C" ) = -6.67% (inactive)

Reported max response ( "C=CC(=O)OCC[N+](C)(C)C" ) = -5.74% (inactive)

Reported max response ( "O=C(O)CN(CCCN(CC(=O)O)CC(=O)O)CC(=O)O" ) = -11% (inactive)

Reported max response ( "CC1(C)C(=O)N(Cl)C(=O)N1Cl" ) = -4.37% (inactive)

Reported max response ( "c1ccc(OCCOc2ccccc2)cc1" ) = -4.78% (inactive)

Reported max response ( "COC(=O)c1ccc(CNS(C)(=O)=O)cc1S(=O)(=O)NC(=O)Nc1nc(OC)cc(OC)n1" ) = 10.3% (inactive)

Reported max response ( CCCCC(CC)C(=O)OCCOCCOCCOC(=O)C(CC)CCCC (configuration not stated) ) = -11.7% (inactive)

Reported max response ( "Cc1ccc(N=Nc2c(O)ccc3ccccc23)c([N+](=O)[O-])c1" ) = -2.16% (inactive)

Reported max response ( "CCCCOCCOCCOC(=O)CCCCC(=O)OCCOCCOCCCC" ) = -4.73% (inactive)

Reported max response ( "c1ccc2c(c1)Cc1ccccc1-2" ) = -4.41% (inactive)

Reported max response ( "CN(C)CCOCCN(C)C" ) = -5.76% (inactive)

Reported max response ( "CC(C)C(=O)OC(=O)C(C)C" ) = -4.79% (inactive)

Reported max response ( "CC(C)(C)c1cc(C(C)(C)C)c(O)c(C(C)(C)C)c1" ) = -4.45% (inactive)

Reported max response ( O=C=NC1CCC(CC2CCC(N=C=O)CC2)CC1 (configuration not stated) ) = -9.19% (inactive)

Reported max response ( "OCc1cccc(Oc2ccccc2)c1" ) = 2.32% (inactive)

Reported max response ( "CN(C)c1ccc(C(c2ccccc2)c2ccc(N(C)C)cc2)cc1" ) = -22.1% (inactive)

Reported max response ( "C=Cc1ccccc1Br" ) = -11.7% (inactive)

Reported max response ( CC1(C)CC(N)CC(C)(CN)C1 (configuration not stated) ) = -2.22% (inactive)

Reported max response ( "O=S(=O)(O)c1cc(S(=O)(=O)O)c2c(N=Nc3ccccc3)c(O)ccc2c1" ) = -12.7% (inactive)

Reported max response ( "CCCCCCCCCC(C)=O" ) = -5.17% (inactive)

Reported max response ( "O=c1oc(=O)c2cc3c(=O)oc(=O)c3cc12" ) = -11.4% (inactive)

Reported max response ( "CCCC[O][Al]([O]CCCC)[O]CCCC" ) = 5.37% (inactive)

Reported max response ( "O=c1n(CCO)c(=O)n(CCO)c(=O)n1CCO" ) = -6.36% (inactive)

Reported max response ( "O=C1CCC(C2CCCCC2)CC1" ) = -5.89% (inactive)

Reported max response ( "C=C(C)C(=O)OCCCCCCCCCCCCCCCC" ) = -1.34% (inactive)

Reported max response ( "Brc1ccc(Oc2ccc(Br)cc2)cc1" ) = -10% (inactive)

Reported max response ( CC1=CC2C3CC(C=C3C)C2C1 (configuration not stated) ) = -3.16% (inactive)

Reported max response ( "CC1(C)C(=O)N(Br)C(=O)N1Cl" ) = -4.13% (inactive)

Reported max response ( "c1cc2ccc3ccc4ccc5cccc6c(c1)c2c3c4c56" ) = -3.62% (inactive)

Reported max response ( CC(C)C(=O)OCC(C)(C)C(O)C(C)C (configuration not stated) ) = -9.28% (inactive)

Reported max response ( CCCCCC1CCC(=O)O1 (configuration not stated) ) = -7.91% (inactive)

Reported max response ( "CCCCCCCCCCCCCCO" ) = -0.0211% (inactive)

Reported max response ( "OCCOCCOCCOCCOCCO" ) = -4.24% (inactive)

Reported max response ( "CCSC(=O)N(CC(C)C)CC(C)C" ) = -1.7% (inactive)

Reported max response ( "Cc1ccc(S(=O)(=O)N=C=O)cc1" ) = -6.04% (inactive)

Reported max response ( "O=C(O)C(c1ccc(Cl)cc1)c1ccc(Cl)cc1" ) = 0.137% (inactive)

Reported max response ( "CCCCCCCCCCCCCCC(=O)OC" ) = -7.2% (inactive)

Reported max response ( "CCCCCCCCCCCCN" ) = -1.85% (inactive)

Reported max response ( "Cn1sccc1=O" ) = -4.03% (inactive)

Reported max response ( CC(COCC(C)OC(=O)c1ccccc1)OC(=O)c1ccccc1 (configuration not stated) ) = -11.6% (inactive)

Reported max response ( "COCCOCCOCCO" ) = -7% (inactive)

Reported max response ( "C=C(C)C(=O)OCCOCCOCCOC(=O)C(=C)C" ) = -8.3% (inactive)

Reported max response ( "C=C(C)C(=O)OCCOC(=O)C(=C)C" ) = -1.71% (inactive)

Reported max response ( "O=[N+]([O-])c1ccc2c(c1)Cc1ccccc1-2" ) = -16.4% (inactive)

Reported max response ( "CC(=O)N(CCN(C(C)=O)C(C)=O)C(C)=O" ) = -0.359% (inactive)

Reported max response ( "CC(C)O.CC(C)O.CC(C)O.CC(C)O.[Ti]" ) = -10.9% (inactive)

Reported max response ( "O=[N+]([O-])C(CO)(CO)CO" ) = -13.7% (inactive)

Reported max response ( "CCOc1ccc(NC(=O)OC(C)C)cc1OCC" ) = -5.68% (inactive)

Reported max response ( "CCCCCCCCCc1ccccc1" ) = 2.81% (inactive)

Reported max response ( "CC(C)(C)c1n[nH]c(=O)n(N)c1=O" ) = -15.1% (inactive)

Reported max response ( "O=C(O)C(Oc1ccc(Cl)cc1)Oc1ccc(Cl)cc1" ) = -2.57% (inactive)

Origin of values: PubChem BioAssay (NCATS)
